Molecular target: Delta-type opioid receptor (Homo sapiens, UniProt P41143)
Sequence (P41143 whole entry): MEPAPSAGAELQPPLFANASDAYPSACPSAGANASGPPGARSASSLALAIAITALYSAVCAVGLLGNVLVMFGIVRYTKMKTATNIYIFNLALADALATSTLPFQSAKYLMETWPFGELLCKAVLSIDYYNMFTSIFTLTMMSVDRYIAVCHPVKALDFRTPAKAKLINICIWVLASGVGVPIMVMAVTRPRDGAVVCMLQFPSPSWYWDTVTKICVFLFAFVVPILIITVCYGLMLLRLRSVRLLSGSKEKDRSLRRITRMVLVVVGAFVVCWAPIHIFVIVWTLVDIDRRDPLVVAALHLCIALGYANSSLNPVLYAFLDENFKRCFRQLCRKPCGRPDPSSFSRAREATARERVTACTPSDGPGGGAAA
Test: Displacement of [3H]DPDPE from delta opioid receptor (unknown origin)
Residues, ends and D or L forms follow the SMILES beside them.
MEASUREMENT NAME: Ki (nM)
A number alone suffices; assume nM.

stdin: Entry Cc1cc(O)cc(C)c1C[C@H](N)C(=O)N1CCC[C@H]1C(=O)N[C@@H](Cc1ccccc1)C(N)=O (HELM PEPTIDE1{[Cc1cc(O)cc(C)c1C[C@H](N)C(=O)[*:2]].P.F.[am]}$$$$V2.0) , system Delta-type opioid receptor (Homo sapiens, UniProt P41143): what Ki was measured?
stdout: 53.2

* * *

Measured pIC50 values are reported for all entries that follow.
Molecular target: Mu-type opioid receptor (Cavia porcellus, UniProt P97266)
Sequence (P97266 whole entry): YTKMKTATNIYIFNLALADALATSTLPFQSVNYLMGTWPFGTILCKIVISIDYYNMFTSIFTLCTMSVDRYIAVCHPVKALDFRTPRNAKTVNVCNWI
Test: Agonist activity at mu opioid receptor in guinea pig ileum assessed as inhibition of electrically-stimulated muscle contraction
Residues, ends and D or L forms follow the SMILES beside them.
// scale note: pIC50 = -log10(conc_M); give the bare number

>>> numeric_result("Cc1cc(O)cc(C)c1C[C@H](N)C(=O)N1CCC[C@H]1C(=O)N[C@@H](Cc1ccccc1)C(=O)N[C@@H](Cc1ccc2ccccc2c1)C(N)=O (HELM PEPTIDE1{[Cc1cc(O)cc(C)c1C[C@H](N)C(=O)[*:2]].P.F.[O=C([C@H](Cc1ccc2ccccc2c1)N[*:1])[*:2]].[am]}$$$$V2.0)")
7.40

Let us examine a further case.
stdin: Quick check: pIC50 of "CC(C)C[C@@H](NC(=O)[C@H](Cc1ccccc1)NC(=O)CNC(=O)[C@@H](C)NC(=O)[C@@H](N)Cc1ccc(O)cc1)C(=O)O" ?
stdout: 7.87

* * *

Target: Mu-type opioid receptor (Cavia porcellus, UniProt P97266)
Assay: Agonist activity at mu opioid receptor in guinea pig ileum assessed as inhibition of electrically-stimulated muscle contraction
Residues, ends and D or L forms follow the SMILES beside them.
MEASUREMENT NAME: IC50 (nM)
A number alone suffices; assume nM.

>>> numeric_result("Cc1cc(C)c(C[C@H](NC(=O)[C@@H]2CCCN2C(=O)[C@@H](N)Cc2c(C)cc(O)cc2C)C(N)=O)c(C)c1")
2.68

stdin: Entry Cc1cc(O)cc(C)c1C[C@H](N)C(=O)N1CCC[C@H]1C(=O)N[C@@H](Cc1ccccc1)C(N)=O (HELM PEPTIDE1{[Cc1cc(O)cc(C)c1C[C@H](N)C(=O)[*:2]].P.F.[am]}$$$$V2.0) , system Mu-type opioid receptor (Cavia porcellus, UniProt P97266): what IC50 was measured?
stdout: 2.33

stdin: Entry Cc1cc(O)cc(C)c1C[C@H](NC(=O)[C@H](Cc1ccccc1)NC(=O)[C@@H]1CCCN1C(=O)[C@@H](N)Cc1c(C)cc(O)cc1C)C(N)=O (HELM PEPTIDE1{[Cc1cc(O)cc(C)c1C[C@H](N)C(=O)[*:2]].P.F.[Cc1cc(O)cc(C)c1C[C@H](N[*:1])C(=O)[*:2]].[am]}$$$$V2.0) , system Mu-type opioid receptor (Cavia porcellus, UniProt P97266): what IC50 was measured?
stdout: 44.6

stdin: Entry Cc1cc(O)cc(C)c1C[C@H](N)C(=O)N1CCC[C@H]1C(=O)N[C@@H](Cc1cccc2ccccc12)C(N)=O (HELM PEPTIDE1{[Cc1cc(O)cc(C)c1C[C@H](N)C(=O)[*:2]].P.[O=C([C@H](Cc1cccc2ccccc12)N[*:1])[*:2]].[am]}$$$$V2.0) , system Mu-type opioid receptor (Cavia porcellus, UniProt P97266): what IC50 was measured?
stdout: 4.63

* * *

Molecular target: Mu-type opioid receptor (Rattus norvegicus, UniProt P33535)
Sequence (P33535 whole entry): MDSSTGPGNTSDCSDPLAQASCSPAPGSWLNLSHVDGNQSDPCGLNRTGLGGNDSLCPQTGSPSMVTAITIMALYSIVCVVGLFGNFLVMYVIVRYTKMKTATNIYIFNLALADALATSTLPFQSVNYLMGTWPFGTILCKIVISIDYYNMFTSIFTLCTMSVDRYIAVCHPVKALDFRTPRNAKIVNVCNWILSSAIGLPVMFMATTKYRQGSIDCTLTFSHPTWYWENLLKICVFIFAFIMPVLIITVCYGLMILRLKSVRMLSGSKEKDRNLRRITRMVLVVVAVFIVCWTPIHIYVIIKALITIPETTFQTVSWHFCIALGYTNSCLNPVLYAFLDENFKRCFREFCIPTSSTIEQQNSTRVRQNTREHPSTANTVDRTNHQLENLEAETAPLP
Residues, ends and D or L forms follow the SMILES beside them.
MEASUREMENT NAME: Ki (nM)
A number alone suffices; assume nM.

>>> numeric_result("Cc1cccc(C)c1C[C@H](NC(=O)[C@@H]1CCCN1C(=O)[C@@H](N)Cc1c(C)cc(O)cc1C)C(N)=O (HELM PEPTIDE1{[Cc1cc(O)cc(C)c1C[C@H](N)C(=O)[*:2]].P.[Cc1cccc(C)c1C[C@H](N[*:1])C(=O)[*:2]].[am]}$$$$V2.0)")
0.15

stdin: Entry "Cc1cc(C)c(C[C@H](NC(=O)[C@H](Cc2ccccc2)NC(=O)[C@@H]2CCCN2C(=O)[C@@H](N)Cc2c(C)cc(O)cc2C)C(N)=O)c(C)c1" , system Mu-type opioid receptor (Rattus norvegicus, UniProt P33535): what Ki was measured?
stdout: 0.37

stdin: Entry "Cc1cc(C)c(C[C@H](NC(=O)[C@H](Cc2c(C)cc(C)cc2C)NC(=O)[C@@H]2CCCN2C(=O)[C@@H](N)Cc2c(C)cc(O)cc2C)C(N)=O)c(C)c1" , system Mu-type opioid receptor (Rattus norvegicus, UniProt P33535): what Ki was measured?
stdout: 0.47

stdin: Entry Cc1cc(O)cc(C)c1C[C@H](N)C(=O)N1CCC[C@H]1C(=O)N[C@@H](Cc1ccccc1)C(=O)N[C@@H](Cc1ccc2ccccc2c1)C(N)=O (HELM PEPTIDE1{[Cc1cc(O)cc(C)c1C[C@H](N)C(=O)[*:2]].P.F.[O=C([C@H](Cc1ccc2ccccc2c1)N[*:1])[*:2]].[am]}$$$$V2.0) , system Mu-type opioid receptor (Rattus norvegicus, UniProt P33535): what Ki was measured?
stdout: 0.81

stdin: Entry Cc1cc(O)cc(C)c1C[C@H](N)C(=O)N1CCC[C@H]1C(=O)N[C@@H](Cc1cccc2ccccc12)C(N)=O (HELM PEPTIDE1{[Cc1cc(O)cc(C)c1C[C@H](N)C(=O)[*:2]].P.[O=C([C@H](Cc1cccc2ccccc12)N[*:1])[*:2]].[am]}$$$$V2.0) , system Mu-type opioid receptor (Rattus norvegicus, UniProt P33535): what Ki was measured?
stdout: 0.7

stdin: Entry Cc1cc(O)cc(C)c1C[C@H](N)C(=O)N1CCC[C@H]1C(=O)N[C@@H](Cc1ccccc1)C(=O)N[C@@H](Cc1c[nH]c2ccccc12)C(N)=O (HELM PEPTIDE1{[Cc1cc(O)cc(C)c1C[C@H](N)C(=O)[*:2]].P.F.W.[am]}$$$$V2.0) , system Mu-type opioid receptor (Rattus norvegicus, UniProt P33535): what Ki was measured?
stdout: 0.34

stdin: Entry Cc1cc(O)cc(C)c1C[C@H](N)C(=O)N1CCC[C@H]1C(=O)N[C@@H](Cc1ccc2ccccc2c1)C(N)=O (HELM PEPTIDE1{[Cc1cc(O)cc(C)c1C[C@H](N)C(=O)[*:2]].P.[O=C([C@H](Cc1ccc2ccccc2c1)N[*:1])[*:2]].[am]}$$$$V2.0) , system Mu-type opioid receptor (Rattus norvegicus, UniProt P33535): what Ki was measured?
stdout: 16.9

stdin: Entry "Cc1cccc(C)c1C[C@H](NC(=O)[C@H](Cc1ccccc1)NC(=O)[C@@H]1CCCN1C(=O)[C@@H](N)Cc1c(C)cc(O)cc1C)C(N)=O" , system Mu-type opioid receptor (Rattus norvegicus, UniProt P33535): what Ki was measured?
stdout: 0.31

stdin: Entry "Cc1cc(C)c(C[C@H](NC(=O)[C@@H]2CCCN2C(=O)[C@@H](N)Cc2c(C)cc(O)cc2C)C(N)=O)c(C)c1" , system Mu-type opioid receptor (Rattus norvegicus, UniProt P33535): what Ki was measured?
stdout: 0.13

* * *

Molecular target: Mu-type opioid receptor (Cavia porcellus)
Assay: Agonist activity at mu opioid receptor in guinea pig ileum assessed as inhibition of electrically-stimulated muscle contraction
Measured pIC50 values are reported for all entries that follow.
// scale note: pIC50 = -log10(conc_M); give the bare number

# count of solved cases: 2
>>> numeric_result("Cc1cccc(C)c1C[C@H](NC(=O)[C@H](Cc1ccccc1)NC(=O)[C@@H]1CCCN1C(=O)[C@@H](N)Cc1c(C)cc(O)cc1C)C(N)=O")
6.60
>>> numeric_result("Cc1cc(C)c(C[C@H](NC(=O)[C@H](Cc2c(C)cc(C)cc2C)NC(=O)[C@@H]2CCCN2C(=O)[C@@H](N)Cc2c(C)cc(O)cc2C)C(N)=O)c(C)c1")
8.03

Let us examine a further case.
stdin: Quick check: pIC50 of "Cc1cc(C)c(C[C@H](NC(=O)[C@H](Cc2ccccc2)NC(=O)[C@@H]2CCCN2C(=O)[C@@H](N)Cc2c(C)cc(O)cc2C)C(N)=O)c(C)c1" ?
stdout: 7.18

* * *

Molecular target: Mu-type opioid receptor (Cavia porcellus)
Assay: Agonist activity at mu opioid receptor in guinea pig ileum assessed as inhibition of electrically-stimulated muscle contraction
Residues, ends and D or L forms follow the SMILES beside them.
MEASUREMENT NAME: pIC50
// scale note: pIC50 = -log10(conc_M); give the bare number

# count of solved cases: 3
>>> numeric_result("Cc1cc(O)cc(C)c1C[C@H](N)C(=O)N1CCC[C@H]1C(=O)N[C@@H](Cc1ccccc1)C(=O)N[C@@H](Cc1cccc2ccccc12)C(N)=O (HELM PEPTIDE1{[Cc1cc(O)cc(C)c1C[C@H](N)C(=O)[*:2]].P.F.[O=C([C@H](Cc1cccc2ccccc12)N[*:1])[*:2]].[am]}$$$$V2.0)")
7.84
>>> numeric_result("Cc1cc(O)cc(C)c1C[C@H](N)C(=O)N1CCC[C@H]1C(=O)N[C@@H](Cc1c[nH]c2ccccc12)C(N)=O (HELM PEPTIDE1{[Cc1cc(O)cc(C)c1C[C@H](N)C(=O)[*:2]].P.W.[am]}$$$$V2.0)")
7.98
>>> numeric_result("Cc1cc(O)cc(C)c1C[C@H](N)C(=O)N1CCC[C@H]1C(=O)N[C@@H](Cc1ccccc1)C(=O)N[C@@H](Cc1c[nH]c2ccccc12)C(N)=O (HELM PEPTIDE1{[Cc1cc(O)cc(C)c1C[C@H](N)C(=O)[*:2]].P.F.W.[am]}$$$$V2.0)")
6.68

stdin: Quick check: pIC50 of Cc1cccc(C)c1C[C@H](NC(=O)[C@@H]1CCCN1C(=O)[C@@H](N)Cc1c(C)cc(O)cc1C)C(N)=O (HELM PEPTIDE1{[Cc1cc(O)cc(C)c1C[C@H](N)C(=O)[*:2]].P.[Cc1cccc(C)c1C[C@H](N[*:1])C(=O)[*:2]].[am]}$$$$V2.0) ?
stdout: 9.56
